Reported % of binding of reference (=100%) is given for each of the following binders.
Target: T1, purified interference factor(s), Donor B
T1 construct: also called interference in serum from Donor B
Experiment: SPR, interference factor immobilized
# number only, unit % dropped from output

For orientation, consider the following solved cases.
>>> measured_number("SEQ ID NO: 83 (VHH, Ex. 8) VHH: EVQLVESGGGLVQPGGSLRLSCAASRSIGRLDRMGWYRHRPGEPRELVATITGGSSINYGDSVKGRFTISIDNSKNTVYLQMNSLRPEDAAVYYCNFNKYVTSRDTWGQGTLVTVSS")
73
>>> measured_number("SEQ ID NO: 43 (VHH, Ex. 8) DVQLVESGGGLVQPGGSLRLSCAASGFILDYYAIGWFRQAPGKEREGVLCIDASDDITYYADSVKGRFTISRDNSKNTVYLQMNSLRPEDTAVYYCATPIGLSSSCLLEYDYDYWGQGTLVTVSSGGGGSGGGSEVQLLESGGGLVQPGGSLRLSCAASGFTFRSFGMSWVRQAPGKGPEWVSSISGSGSDTLYADSVKGRFTISRDNSKNTLYLQMNSLRPEDTAVYYCTIGGSLSRSSQGTLVTVSSA")
20
>>> measured_number("SEQ ID NO: 85 (VHH, Ex. 8) VHH: EVQLVESGGGSVQPGGSLRLSCAASRSIGRLDRMGWYRHRPGEPRELVATITGGSSINYGDSVKGRFTISIDNSKNTVYLQMNSLRPEDTAVYYCNFNKYVTSRDTWGQGTLVQVGG")
5
>>> measured_number("SEQ ID NO: 72 (VHH, Ex. 8) VHH: EVQLVESGGGLVQPGGSLRLSCAASRSIGRLDRMGWYRHRPGEPRELVATITGGSSINYGDSVKGRFTISIDNSKNTVYLQMNSLRPEDTAVYYCNFNKYVTSRDTWGQGTLVTVGG")
47
>>> measured_number("SEQ ID NO: 77 (VHH, Ex. 8) VHH: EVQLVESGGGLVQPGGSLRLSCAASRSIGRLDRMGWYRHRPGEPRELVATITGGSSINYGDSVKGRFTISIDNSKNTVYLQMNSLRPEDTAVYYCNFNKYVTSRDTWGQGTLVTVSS")
12

input: Please give measured % of binding of reference (=100%) of the following entry: SEQ ID NO: 76 (VHH, Ex. 8) VHH: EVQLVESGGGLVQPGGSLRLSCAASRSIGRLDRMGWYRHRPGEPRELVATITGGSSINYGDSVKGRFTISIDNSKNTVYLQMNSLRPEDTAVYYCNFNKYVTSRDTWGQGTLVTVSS
output: 17

input: For the binder SEQ ID NO: 78 (VHH, Ex. 8) VHH: EVQLVESGGGLVRPGGSLRLSCAASRSIGRLDRMGWYRHRPGEPRELVATITGGSSINYGDSVKGRFTISIDNSKNTVYLQMNSLRPEDTAVYYCNFNKYVTSRDTWGQGTLVTVSS , report % of binding of reference (=100%).
output: 96
